# protocol.notes: In vivo biodistribution by SPECT/CT imaging
# Set-up: species or system C57BL/6 mice
# particulars: female, C57BL/6, mouse, liver, total radioactivity; 24 h p.i.; 30 MBq iv; mean ± SD, n = 6; SD; read-out: Liver %ID/g
Numbered stars: 1 amine (or outer) side, 2 acyl side, 3 side chain; on linkers, the order of the positions; unused ones are H or OH. Bridge positions count the residues as written; N and C are the ends. Peptide text beside a SMILES is read from it. * marks the point of attachment. X1 = O=C(O)CN1CCN(CC(=O)O)CCN(CC(=O)N2CCN(Cc3cc(C[*:1])cc(C[*:2])c3)CC2)CCN(CC(=O)O)CC1; Hexanoyl = CCCCCC(=O)*
measured.property: tissue uptake at 24 h (%ID/g)

molecule	measured.property	val
CCCCCC(=O)N[C@H]1CSCc2cc(cc(CN3CCN(C(=O)CN4CCN(CC(=O)O)CCN(CC(=O)O)CCN(CC(=O)O)CC4)CC3)c2)CSC[C@@H](C(=O)N[C@@H](CC(=O)O)C(N)=O)NC(=O)[C@H](Cc2ccccc2)NC(=O)[C@H](CCC(N)=O)NC(=O)[C@H]([C@@H](C)O)NC(=O)[C@@H]2CCCN2C(=O)[C@@H]2CCCN2C1=O [^177Lu-FAP-2287, metal not drawn] (Hexanoyl-CPPTQFCD-NH2; linker 1-7 via X1; N-terminus and C-terminus assumed)	tissue uptake at 24 h	0.3

Data provenance is paper PMC10317891.
